These measurements were taken from PubChem BioAssay (NCI).

Test system: RXF 393 renal
Assay: NCI-60 one-dose screen, 48 h (100 = growth as untreated, 0 = no growth, -100 = all killed)
Conditions: 10 µM unless noted
About 83,000 compounds went through this panel and 20% of them were active in at least one assay; those are over-represented in the sample as a whole.
measurement_name: growth (%)

molecule=CCCSc1nc(Nc2ccc(S(N)(=O)=O)cc2)c(C#N)c(-c2cc(OC)c(OC)c(OC)c2)n1 measurement_name=growth u=% measured_result=-2.49
molecule=Cn1cc(-c2cc(N)n3nc(-c4cn(C)c5ncccc45)cc3n2)c2cccnc21 measurement_name=growth u=% measured_result=58.8
molecule=COc1ccc2cc([C@H](C)C(=O)N/N=C/c3ccc(Br)cc3)ccc2c1 measurement_name=growth u=% measured_result=100
molecule=O=C(Cn1c2c(sc1=O)[C@H]1[C@@H](O)[C@@H](O)[C@H](O)[C@@H]1CS2)N1CCOCC1 measurement_name=growth u=% measured_result=117
molecule="CC1(C)CC[C@]2(C(=O)O)CC[C@]3(C)C(=CCC4[C@@]5(C)C[C@@H](O)[C@@H]6OC(c7ccco7)OC[C@@]6(C)C5CC[C@]43C)C2C1 (stereo partly specified)" measurement_name=growth u=% measured_result=32.4
molecule=Cc1ccc(S(=O)(=O)c2nc(S(=O)(=O)c3ccc(C)cc3)c(N3CCC(O)CC3)s2)cc1 measurement_name=growth u=% measured_result=33.6
molecule=COc1cc(/C=C/C(=O)c2ccccc2)ccc1Oc1nc(Nc2ccc(F)cc2)nc(N(C)C)n1 measurement_name=growth u=% measured_result=39.4
molecule=Cc1ccc(C(SCCNCc2cc(N(C)C)ccn2)(c2ccccc2)c2ccccc2)cc1 measurement_name=growth u=% measured_result=-47.3
molecule=COc1cc(-c2nc3cc(Cl)c(Cl)cc3[nH]2)ccc1OCc1nnc(-c2cccs2)o1 measurement_name=growth u=% measured_result=-2.12
molecule=CC(=O)Nc1cccc(-c2nc3cc(-c4ccc(O)cc4)ccc3n2C)c1 measurement_name=growth u=% measured_result=81.3
molecule=COc1cccc(/C=C/C(=O)c2ccc(OC)c(S(N)(=O)=O)c2)c1 measurement_name=growth u=% measured_result=41.7
molecule=Nc1cc2ccccc2c(=O)n1NC(=O)c1ccc(I)cc1 measurement_name=growth u=% measured_result=108
molecule=COc1cc2oc(-c3cccc(NC(=O)[C@H](CC(N)=O)NC(=O)OC(C)(C)C)c3)cc(=O)c2c(OC)c1OC measurement_name=growth u=% measured_result=69.4
molecule=Cn1cc(-c2cc(N)n3nc(-c4cn(C)c5ccc(Cl)cc45)cc3n2)c2ccccc21 measurement_name=growth u=% measured_result=115
molecule=CC(C)Sc1nc(NCCc2c[nH]c3ccccc23)c(C#N)c(-c2ccc(F)cc2)n1 measurement_name=growth u=% measured_result=-3.65
molecule=COc1ccc(/C=C/c2nc3ccccc3n3c(-c4ccc(Cl)cc4)nnc23)cc1 measurement_name=growth u=% measured_result=100
molecule="CCOC(=O)C(N=Nc1ccc(S(=O)(=O)N=C(N)N)cc1)C(C)=O (stereo unspecified)" measurement_name=growth u=% measured_result=105
molecule=COc1ccc(-c2nnc3ccc(N/N=C/c4ccc(C)cc4)nn23)cc1 measurement_name=growth u=% measured_result=62.2
molecule="COc1c(F)ccc(C(=O)Nc2ccc3nc(NC(=O)C4CCCN(S(=O)(=O)C5CC5)C4)sc3c2)c1F (stereo unspecified)" measurement_name=growth u=% measured_result=-4.35
molecule=Clc1cccc(Cl)c1/C=C/c1cc(/C=C/c2ccc(Br)cc2)c2ccccc2n1 measurement_name=growth u=% measured_result=83.4
molecule="CC12CC[C@@H]3[C@]4(C)COC(c5cn[nH]c5-c5ccc(Cl)cc5)O[C@@H]4CC[C@@]3(C)[C@@H]1CC(C1=CCOC1=O)O2 (stereo partly specified)" measurement_name=growth u=% measured_result=5.04
molecule=COc1ccc(-c2ccc(SCC(=O)NCCc3ccc(S(N)(=O)=O)cc3)nn2)cc1 measurement_name=growth u=% measured_result=80.2
molecule=O=C(Cn1nc(-c2ccccc2)ccc1=O)N/N=C/c1ccc(N2CCOCC2)cc1 measurement_name=growth u=% measured_result=111
molecule=COc1ccc(NC(=O)Cn2c(O)c(N=Nc3ccc(S(N)(=O)=O)cc3)c3ccccc32)cc1 measurement_name=growth u=% measured_result=82.7
molecule=N=C1N=C(SCc2nc3ccccc3[nH]2)NC(=O)/C1=C/c1ccc(Cl)cc1 measurement_name=growth u=% measured_result=113
molecule=O=C(NNc1nc2cc(C(F)(F)F)ccc2n2cccc12)c1cnccn1 measurement_name=growth u=% measured_result=-74
molecule=O=C(c1ccccc1)C(c1c[nH]c2ccccc12)c1c[nH]c2ccccc12 measurement_name=growth u=% measured_result=46.8
molecule=O=C(O)Cn1c(O)c(/C=C2/C=c3cc4c(cc3=NC2=O)OCCO4)sc1=S measurement_name=growth u=% measured_result=117
molecule=COc1ccc(C(SCCNCc2cc(N(C)C)ccn2)(c2ccccc2)c2ccccc2)cc1 measurement_name=growth u=% measured_result=-21.4
molecule=O=c1[nH]c2ccc(Cl)cc2cc1CSc1nccc(-c2ccc(Cl)cc2)n1 measurement_name=growth u=% measured_result=35.3
molecule="COc1c(F)ccc(C(=O)Nc2ccc3nc(NC(=O)C4CCCN(S(=O)(=O)c5ccc(C#N)cc5)C4)sc3c2)c1F (stereo unspecified)" measurement_name=growth u=% measured_result=46.7
molecule=COc1cc2nc(SCc3ccccc3)n(-c3ccc(Cl)cc3)c(=O)c2cc1OC measurement_name=growth u=% measured_result=-38.8
molecule="Cc1ccc([C@H]2C(C(=O)c3ccc(Cl)cc3)C3(N[C@@H]2c2ccccc2)C(=O)Nc2ccc(Br)cc23)cc1 (stereo partly specified)" measurement_name=growth u=% measured_result=33.6
molecule="CC(=O)OCC1OC(OC2C(COC(C)=O)OC(n3cc(COc4ccc5ccc(=O)oc5c4)nn3)C(OC(C)=O)C2OC(C)=O)C(OC(C)=O)C(OC(C)=O)C1OC(C)=O (stereo unspecified)" measurement_name=growth u=% measured_result=90.5
molecule=CN(C)c1ccnc(NCCCSC(c2ccccc2)(c2ccccc2)c2ccccc2)c1 measurement_name=growth u=% measured_result=6.09
molecule=CCCCSc1nc(Nc2ccc(S(N)(=O)=O)cc2)c(C#N)c(-c2ccc(Cl)cc2)n1 measurement_name=growth u=% measured_result=16.8
